- METHOD NOTES: Radiolysis (steady state): release of combretastatin A4 after one-electron reduction
- Type: physicochemical
- APPLIED CONDITIONS: isopropanol/water 50:50, N2O-saturated, 60Co source 3.9 Gy min^−1, HPLC
// G (radiation chemical yield of combretastatin A4 release) lookup, one value per entry
QUANTITY MEASURED: G (radiation chemical yield of combretastatin A4 release) (µmol/J)

- COc1ccc(/C=C\c2cc(OC)c(OC)c(OC)c2)cc1OCc1c2c(n(C)c1C)C(=O)C=C(N1CCN(C)CC1)C2=O [Example 5]: 0.34
- COc1ccc(/C=C\c2cc(OC)c(OC)c(OC)c2)cc1OC(C)c1ccc([N+](=O)[O-])s1 (stereo not shown) [Example 2]: 0.33
- COc1ccc(/C=C\c2cc(OC)c(OC)c(OC)c2)cc1OCc1ccc([N+](=O)[O-])s1 [Example 1]: 0.23
- COC1=CC(=O)c2c(c(COc3cc(/C=C\c4cc(OC)c(OC)c(OC)c4)ccc3OC)c(C)n2C)C1=O [Example 4]: 0.44

Source of measurements: patent US20060223827A1
